- Experimental target: L-lactate dehydrogenase (Plasmodium falciparum (isolate CDC / Honduras))
- Protocol text: PfLDH activity inhibition – cell lysate, 3D7 strain, counter-screen for P. falciparum growth inhibition project (AID 2304);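 also: 0% = vehicle and 100% = reference inhibitor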
- Conditions: P. falciparum 3D7 crude extract, LDH APAD/NBT absorbance; at 2 µM; stronger effect = higher value
Measurement label: inhibition (%)
Numbers only, in %.

These solved cases illustrate the format of a correct answer.
Cn1c(C2C[C@H]3CC[C@H](C2)N3CC2CCC(NC(=O)/C=C/c3ccc(Cl)c(Cl)c3)CC2)nc2ccccc21 (some centres undefined) : 4
CCc1ccc(CN2CCC(CN(C(=O)c3ccccc3)c3ccc(Cl)cc3)CC2)cc1 : -4
CC(C)CNCc1ccc(-c2cccc(CN(C(=O)NC3CCCCC3)C3CCN(Cc4ccccc4)CC3)c2)cc1 : 2

Record inhibition per entry; entries follow.
1. Cc1[nH]c2ccccc2c1C1=CCN(CCCCCC23CCCc4cccc(c42)NC3=O)CC1 (centres undefined)
2. CC(=O)N(Cc1cccc(-c2ccc(CNCCc3ccccc3)cc2)c1)C1CCN(Cc2ccccc2)CC1
3. Cc1[nH]c2ccccc2c1C1=CCN(CCN2CCOc3c(Br)cccc3C2=O)CC1
4. CC[C@H]1CN2CCc3cc(OC)c(OC)cc3[C@@H]2C[C@@H]1C[C@H]1NCCc2c1cc(OC)c(OC)c2Br

Ans.
[5, -5, -3, -1]

Record inhibition per entry; entries follow.
1. O=C(/C=C/c1cccs1)NC1CCC(CN2CCC(c3c[nH]c4ccccc34)CC2)CC1 (centres undefined)
2. CC[C@H]1CN2CC[C@H]1C[C@H]2[C@H](O)c1cc(-c2ccc(F)cc2)nc2ccc(OC)cc12

Ans.
1: -1; 2: 5

---

- Protocol text: stimulators of nuclear beta-catenin in C2C12, primary screen, imaging, WNT3A-conditioned medium, mouse C2C12, NPC library (AID 1117326); also: reference of the scale not given here
- Conditions: at 10 µM, stronger effect = higher value
I'd appreciate it if you could supply nuclear beta-catenin stimulation values for the items below.
Give bare numbers, in %.

Record nuclear beta-catenin stimulation per entry; entries follow.
1. CC(=O)NC1CCSC1=O (stereo not given)
2. C=C1C[C@@H]2[C@H](CC[C@]3(C)C(=O)CC[C@@H]23)[C@@]2(C)C=CC(=O)C=C12
3. O=C(NC(=O)c1c(F)cccc1F)Nc1ccc(Cl)c(Oc2ncc(C(F)(F)F)cc2Cl)c1

Ans.
2.9
2.3
1.2

Record nuclear beta-catenin stimulation per entry; entries follow.
1. CC(C)(C)NCC(O)c1cc(Cl)c(N)c(C(F)(F)F)c1 (stereo not given)
2. CC(=O)OCC1=C(C(=O)O)N2C(=O)[C@@H](N)[C@H]2SC1

Ans.
0.4
-0.8

---

I'd appreciate it if you could supply inhibition values for the items below.
- Protocol text: LFS_MB_P medulloblastoma growth inhibition, cell-based, chromothripsis tumors, cisplatin or BGB combos (AID 1671449);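 also: cells exposed for 96 hours; 0% = vehicle DMSO and 100% = killing by high DMSO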
- Conditions: LFS_MB_P medulloblastoma cells, measured here: combination with BGB IC40, at 0.05 µM
Give bare numbers, in %.

O=P(O)(NCCCl)NCCCl : -1.01

Record inhibition per entry; entries follow.
1. Cc1c2ccncc2c(C)c2c1[nH]c1ccccc12
2. COc1cc(C2c3cc4c(cc3C(O)C3COC(=O)C23)OCO4)cc(OC)c1OC (configuration not stated)
3. O=c1[nH]c(=O)n(C2OC(CO)C(O)C2O)cc1F (configuration not stated)
4. CN(C)NC(=O)CCC(=O)O
5. CCC1(c2ccccc2)C(=O)NC(=O)NC1=O
6. Cn1c(COP(=O)(NCCBr)NCCBr)cnc1[N+](=O)[O-]

Ans.
[-3.69, 14.5, -0.747, -24.7, -45.6, -39.8]
